Test: Tumor homogenate activation efficiency, non-small cell lung cancer tissue (Examples 28, 37)
Type: in vitro ADME
Settings: pH 5.0, 37° C., 2 h; Table 5
Where a SMILES comes first, the peptide text is derived from it. The star is where a group is joined. NEt(2-(20S-CPT-7-yl)ethyl) = CCN(CCc1c2c(nc3ccccc13)-c1cc3c(c(=O)n1C2)COC(=O)[C@]3(O)CC)*; X7 = CC[C@@]1(O)C(=O)OCc2c1cc1n(c2=O)Cc2c-1nc1ccccc1c2CCN(C)*; Propanoyl(3-maleimido) = O=C1C=CC(=O)N1CCC(=O)*; PEG6 = NCCOCCOCCOCCOCCOCCOCCC(=O)O
// values below are reported Percentage of release efficiency (%) Non-small cell lung cancer tissue (A549)
Provide the reading as a plain figure in %.

Record CCN(CCc1c2c(nc3ccccc13)-c1cc3c(c(=O)n1C2)COC(=O)[C@]3(O)CC)C(=O)CNC(=O)[C@H](CCCCN)NC(=O)[C@H](C)NC(=O)[C@H](C)NC(=O)CCOCCOCCOCCOCCOCCOCCNC(=O)CCN1C(=O)C=CC1=O [MI-6PEG-AAKG-D2] ({Propanoyl(3-maleimido)-PEG6}-AAKG-{NEt(2-(20S-CPT-7-yl)ethyl)}) , field Percentage of release efficiency (%) Non-small cell lung cancer tissue (A549): 69.8

// recorded Percentage of release efficiency (%) Non-small cell lung cancer tissue (A549) for CC[C@@]1(O)C(=O)OCc2c1cc1n(c2=O)Cc2c-1nc1ccccc1c2CCN(C)C(=O)CNC(=O)[C@H](Cc1ccccc1)NC(=O)CNC(=O)CNC(=O)CCOCCOCCOCCOCCOCCOCCNC(=O)CCN1C(=O)C=CC1=O [MI-6PEG-GGFG-D1] ({Propanoyl(3-maleimido)-PEG6}-GGFG-X7) : 71.7

Value of Percentage of release efficiency (%) Non-small cell lung cancer tissue (A549) reported for the compound CC[C@@]1(O)C(=O)OCC2=C1C=C1c3nc4ccccc4c(CCN(C(=O)OCc4ccc(NC(=O)[C@H](CC(N)=O)NC(=O)[C@H](C)NC(=O)[C@H](C)NC(=O)CCOCCOCCOCCOCCOCCOCCNC(=O)CCN5C(=O)C=CC5=O)cc4)C(C)C)c3CN1C2 [MI-6PEG-AAN-PAB-Belotecan] is 79.9
